Assay: Half life in rat after iv administration (n=2-3)
Format: ADME, organism-based
Details: in vivo

# QUERY_SMILES, half-life (h)
measured = [
    ("O=C(O)c1cccc(C[C@@H]2CCCC=C2c2nc(-c3ccccc3)c(-c3ccccc3)o2)c1", 4),
    ("O=C([O-])COc1cccc(C[C@@H]2CCCC=C2c2nc(-c3ccccc3)c(-c3ccccc3)o2)c1.[Na+]", 6.6),
    ("O=C(NS(=O)(=O)Cc1ccccc1)c1cccc(C[C@@H]2CCCC=C2c2nc(-c3ccccc3)c(-c3ccccc3)o2)c1", 4.4),
]

---

Target sequence: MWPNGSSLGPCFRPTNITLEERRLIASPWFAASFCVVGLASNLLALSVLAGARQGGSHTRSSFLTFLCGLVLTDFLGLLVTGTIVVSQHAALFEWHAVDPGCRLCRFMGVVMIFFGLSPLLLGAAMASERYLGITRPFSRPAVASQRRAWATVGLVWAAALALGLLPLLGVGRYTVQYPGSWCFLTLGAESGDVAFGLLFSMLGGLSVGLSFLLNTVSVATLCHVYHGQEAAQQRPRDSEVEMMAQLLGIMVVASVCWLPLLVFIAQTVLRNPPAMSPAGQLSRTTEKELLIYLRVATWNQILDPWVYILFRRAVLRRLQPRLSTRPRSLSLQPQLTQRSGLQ
pKi: −log10 of the molar value.

# QUERY_SMILES, pKi
rows = [
    ("O=C(O)c1cccc(C[C@@H]2CCCC=C2c2nc(-c3ccccc3)c(-c3ccccc3)o2)c1", "< 5.52"),
    ("O=C(NS(=O)(=O)Cc1ccccc1)c1cccc(C[C@@H]2CCCC=C2c2nc(-c3ccccc3)c(-c3ccccc3)o2)c1", "< 5.52"),
    ("O=C(NCCC[C@H](NC(=O)c1cc2ccccc2[nH]1)C(=O)N[C@@H](Cc1ccccc1)C(=O)O)OCc1ccccc1", "< 6.00"),
]

---

Target: Prostacyclin receptor (Homo sapiens, UniProt P43119)
Sequence (P43119 whole entry): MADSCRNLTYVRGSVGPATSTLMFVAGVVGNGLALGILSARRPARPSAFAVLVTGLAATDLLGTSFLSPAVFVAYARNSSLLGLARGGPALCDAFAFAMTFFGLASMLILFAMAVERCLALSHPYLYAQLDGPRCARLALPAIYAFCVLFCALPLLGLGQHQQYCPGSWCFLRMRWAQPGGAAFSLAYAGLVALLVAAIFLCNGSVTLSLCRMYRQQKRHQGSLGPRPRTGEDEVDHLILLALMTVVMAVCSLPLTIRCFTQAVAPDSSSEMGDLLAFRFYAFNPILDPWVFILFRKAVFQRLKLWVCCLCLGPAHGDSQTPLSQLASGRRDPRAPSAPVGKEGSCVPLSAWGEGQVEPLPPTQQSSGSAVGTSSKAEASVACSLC
Parameter Ki: see the listing below.
MEASUREMENT_TYPE: Ki (nM)

# QUERY_SMILES, MEASUREMENT_TYPE, LIMIT_QUALIFIER, EXPERIMENTAL_VALUE
measured = [
    ("O=C(O)c1cccc(C[C@@H]2CCCC=C2c2nc(-c3ccccc3)c(-c3ccccc3)o2)c1", "Ki", "=", 610),
    ("O=C(O)Cc1cccc(C[C@@H]2CCCC=C2c2nc(-c3ccccc3)c(-c3ccccc3)o2)c1", "Ki", "=", 170),
    ("O=C(NOCc1ccccc1)c1cccc(C[C@@H]2CCCC=C2c2nc(-c3ccccc3)c(-c3ccccc3)o2)c1", "Ki", ">", 3000),
]

---

Experiment: Bioavailability in rat (dose 10 mg/kg p.o.)
Assay type: ADME, organism-based
Settings: in vivo, po

# QUERY_SMILES, bioavailability [%]
measured = [
    ("O=C(O)c1cccc(C[C@@H]2CCCC=C2c2nc(-c3ccccc3)c(-c3ccccc3)o2)c1", 99),
    ("O=C(NS(=O)(=O)Cc1ccccc1)c1cccc(C[C@@H]2CCCC=C2c2nc(-c3ccccc3)c(-c3ccccc3)o2)c1", 51),
]

---

Assay: Bioavailability in dog at 3.2 mg/kg after po administration (n=3)
Format: ADME, organism-based, Canis lupus familiaris
Conditions: in vivo
MEASUREMENT_TYPE: bioavailability (%)

# QUERY_SMILES, MEASUREMENT_TYPE, UNIT_SYMBOL, EXPERIMENTAL_VALUE
data = [
    ("O=C(NS(=O)(=O)Cc1ccccc1)c1cccc(C[C@@H]2CCCC=C2c2nc(-c3ccccc3)c(-c3ccccc3)o2)c1", "bioavailability", "%", 97),
]

---

The entries below are paired with their reported pKi.
Target: UniProt P34995
Sequence (P34995 whole entry): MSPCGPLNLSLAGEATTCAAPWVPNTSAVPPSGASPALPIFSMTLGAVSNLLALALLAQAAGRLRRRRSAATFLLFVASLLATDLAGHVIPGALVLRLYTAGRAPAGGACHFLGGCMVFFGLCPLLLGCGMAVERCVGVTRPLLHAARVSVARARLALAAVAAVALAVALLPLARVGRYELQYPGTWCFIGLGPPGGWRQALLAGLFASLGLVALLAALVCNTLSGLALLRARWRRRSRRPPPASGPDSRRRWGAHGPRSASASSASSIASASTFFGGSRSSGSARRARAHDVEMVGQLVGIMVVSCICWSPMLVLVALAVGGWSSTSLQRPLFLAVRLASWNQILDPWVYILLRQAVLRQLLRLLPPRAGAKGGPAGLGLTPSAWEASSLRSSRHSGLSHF
pKi: −log10 of the molar value.

# QUERY_SMILES, pKi
records = [
    ("O=C(O)CCCCCNC(=O)[C@H](CCCNC(=O)OCc1ccccc1)NC(=O)c1cc2ccccc2o1", "< 5.00"),
    ("O=C(NOCc1ccccc1)c1cccc(C[C@@H]2CCCC=C2c2nc(-c3ccccc3)c(-c3ccccc3)o2)c1", "< 5.52"),
    ("O=C(O)c1cccc(C[C@@H]2CCCC=C2c2nc(-c3ccccc3)c(-c3ccccc3)o2)c1", 5.60),
    ("O=C(NCCC[C@H](NC(=O)c1cc2ccccc2[nH]1)C(=O)N[C@@H](Cc1ccccc1)C(=O)O)OCc1ccccc1", "< 6.00"),
    ("O=C(NS(=O)(=O)Cc1ccccc1)c1cccc(C[C@@H]2CCCC=C2c2nc(-c3ccccc3)c(-c3ccccc3)o2)c1", "< 5.52"),
]

---

We begin with a simple list: items and their reported Ki.
Biological target: Prostaglandin D2 receptor (Homo sapiens)
Sequence (Q13258 whole entry): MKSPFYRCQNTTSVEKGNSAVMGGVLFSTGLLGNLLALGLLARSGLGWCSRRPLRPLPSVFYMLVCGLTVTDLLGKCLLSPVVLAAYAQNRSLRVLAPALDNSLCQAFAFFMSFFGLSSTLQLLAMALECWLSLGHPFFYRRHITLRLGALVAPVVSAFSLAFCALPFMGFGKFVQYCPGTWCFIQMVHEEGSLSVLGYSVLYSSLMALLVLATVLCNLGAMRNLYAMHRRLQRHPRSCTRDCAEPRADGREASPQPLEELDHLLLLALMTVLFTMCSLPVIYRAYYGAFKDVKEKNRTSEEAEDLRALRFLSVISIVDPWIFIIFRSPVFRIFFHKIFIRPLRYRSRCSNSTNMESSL
Assay: Inhibition of [3H]PGD-2 binding to human prostanoid DP receptor

# QUERY_SMILES, Ki
rows = [
    ("O=C(NOCc1ccccc1)c1cccc(C[C@@H]2CCCC=C2c2nc(-c3ccccc3)c(-c3ccccc3)o2)c1", "> 1 µM"),
    ("O=C(NCCC[C@H](NC(=O)c1cc2ccccc2[nH]1)C(=O)N[C@@H](Cc1ccccc1)C(=O)O)OCc1ccccc1", "> 1 µM"),
    ("O=C(O)CCCCCNC(=O)[C@H](CCCNC(=O)OCc1ccccc1)NC(=O)c1cc2ccccc2o1", "> 10 µM"),
    ("O=C(NS(=O)(=O)Cc1ccccc1)c1cccc(C[C@@H]2CCCC=C2c2nc(-c3ccccc3)c(-c3ccccc3)o2)c1", "> 3 µM"),
    ("O=C(O)c1cccc(C[C@@H]2CCCC=C2c2nc(-c3ccccc3)c(-c3ccccc3)o2)c1", "> 3 µM"),
]

---

Assay: Clearance in dog after iv administration (n=2-3)
Assay type: ADME, organism-based, Canis lupus familiaris
Conditions: in vivo

# QUERY_SMILES, UNIT_SYMBOL, clearance
records = [
    ("O=C(O)c1cccc(C[C@@H]2CCCC=C2c2nc(-c3ccccc3)c(-c3ccccc3)o2)c1", "mL/min/kg", 0.52),
    ("O=C([O-])COc1cccc(C[C@@H]2CCCC=C2c2nc(-c3ccccc3)c(-c3ccccc3)o2)c1.[Na+]", "mL/min/kg", 1.59),
    ("O=C(NS(=O)(=O)Cc1ccccc1)c1cccc(C[C@@H]2CCCC=C2c2nc(-c3ccccc3)c(-c3ccccc3)o2)c1", "mL/min/kg", 0.52),
]

---

This section lists Ki readings for Prostaglandin E2 receptor EP2 subtype (Homo sapiens, UniProt P43116).

# QUERY_SMILES, Ki
measured = [
    ("O=C(NOCc1ccccc1)c1cccc(C[C@@H]2CCCC=C2c2nc(-c3ccccc3)c(-c3ccccc3)o2)c1", "> 3 µM"),
    ("O=C(O)CCCCCNC(=O)[C@H](CCCNC(=O)OCc1ccccc1)NC(=O)c1cc2ccccc2o1", "> 10 µM"),
]

---

Test: Maximal plasma concentration in dogs after 3.2 mg/kg oral dose, n=3
Type: ADME, organism-based, Canis lupus familiaris
Parameters: dose 3.2 mg/kg, route oral
Settings: dog

# QUERY_SMILES, UNIT_SYMBOL, Cmax
data = [
    ("O=C(NS(=O)(=O)Cc1ccccc1)c1cccc(C[C@@H]2CCCC=C2c2nc(-c3ccccc3)c(-c3ccccc3)o2)c1", "ng/mL", 8200),
]

These entries and their values trace back to ChEMBL document CHEMBL1143620.
